# Test system: Vero cells
# assay notes: Cytotoxicity assay on Vero cells (alamar blue)
# condition summary: Chlorocebus sabaeus, Vero, read-out: IC50 Vero Cells
quantity measured: IC50

* O=C(NC12CC3CC(CC(C3)C1)C2)c1cc2ccc(O)cc2[nH]1 | 16 µg/mL
* Cc1cc(C)c2cc(C(=O)Nc3ccc(C)c(F)c3)[nH]c2c1 | > 64 µg/mL
* Cc1cc(C)c2cc(C(=O)NC3CCCCCC3)[nH]c2c1 | > 64 µg/mL
* Cc1cc(C)c2cc(C(=O)NC3C4CC5CC(C4)CC3C5)[nH]c2c1 (stereo not shown) | > 64 µg/mL
* Cc1cc(C)c2cc(C(=O)NC34CC5CC(CC(C5)C3)C4)[nH]c2c1 | > 64 µg/mL
* Cc1cc(C)c2cc(C(=O)NCC3CCCCC3)[nH]c2c1 | > 64 µg/mL
* Cc1cc(C)c2cc(C(=O)NC3CCCCCCC3)[nH]c2c1 | 16 µg/mL
